Values from patent US4327097A

Assignment: determine reported Relative activity (%), resistant activity against β-lactamase for the given compounds.
System: β-lactamase, Pseudomonas aeruginosa GN 238
Test: Resistant activity against β-lactamase, iodometric assay
Format: biochemical
Conditions: β-lactamase from Pseudomonas aeruginosa GN 238; Potassium Penicillin G = 100

Challenge: Print β-lactamase, Pseudomonas aeruginosa GN 238 Relative activity (%), resistant activity against β-lactamase for CC(C)N1CCN(C(=O)NC(C(=O)NC2C(=O)N3C2SC(C)(C)C3C(=O)O)c2ccccc2)C(=O)C1=O (single isomer, unassigned) [Compound 40] .
Response given: 15%

Challenge: Given CCCCN1CCN(C(=O)NC(C(=O)NC2C(=O)N3C2SC(C)(C)C3C(=O)O)c2ccccc2)C(=O)C1=O (single isomer, unassigned) [Compound 39] , report its Relative activity (%), resistant activity against β-lactamase on β-lactamase, Pseudomonas aeruginosa GN 238.
Response given: 15%

Challenge: Fill: Relative activity (%), resistant activity against β-lactamase (β-lactamase, Pseudomonas aeruginosa GN 238) for this compound CC1(C)S[C@@H]2[C@H](NC(=O)C(C(=O)O)c3ccccc3)C(=O)N2[C@H]1C(=O)O (stereo partly drawn) [Sodium Carbenicillin, reference compound]
Response given: 116%

Challenge: Report value: Relative activity (%), resistant activity against β-lactamase, system: β-lactamase, Pseudomonas aeruginosa GN 238, compound: CC1(C)S[C@@H]2[C@H](NC(=O)C(c3ccccc3)S(=O)(=O)O)C(=O)N2[C@H]1C(=O)O (stereo partly drawn) [Sodium Sulbenicillin, reference compound]
Response given: 50%

Challenge: Give β-lactamase, Pseudomonas aeruginosa GN 238 Relative activity (%), resistant activity against β-lactamase for the following compound: CC1(C)S[C@@H]2[C@H](NC(=O)Cc3ccccc3)C(=O)N2[C@H]1C(=O)O [Potassium Penicillin G, reference compound]
Response given: 100%

Challenge: Give reported Relative activity (%), resistant activity against β-lactamase for CCCCCCCCN1CCN(C(=O)N[C@@H](C(=O)N[C@@H]2C(=O)N3[C@@H]2SC(C)(C)[C@@H]3C(=O)O)c2ccccc2)CC1=O [Compound 30] (β-lactamase, Pseudomonas aeruginosa GN 238)
Response given: 3%
